Origin of the recorded values: patent US20020111274A1

# Test system: GLXMAW Soybean, Williams
# testDetails: Postemergence herbicidal evaluation, GLXMAW
# Format: in vivo, Glycine max, (L.) Merr. cv Williams
# Set-up: scale not given here
# cond: 0.032 kg/ha, postemergence spray, rated about two-three weeks after treatment
# Protocol: In this evaluation, seedling plants are grown in jiffy flats for about two weeks. The test compounds are dispersed in 80/20 acetone/water mixtures containing 1.0% SUN-IT® II, a methylated seed oil, in sufficient quantities to provide the equivalent of about 0.006 kg to 0.400 kg per hectare of active compound when applied to the plants through a spray nozzle operating at 40 psi for a predetermined time. […]
Record form. Attribute: Postemergence herbicidal rating GLXMAW. Fill in for each entry.
Give bare numbers.

Solved cases below.
{"columns": ["smilesStructure", "recordedNumber"],
 "data": [
  ["COc1ccc(C)c(-n2nnc3cc(F)c(-n4c(=O)cc(C(F)(F)F)n(C)c4=O)cc32)c1", 4.0],
  ["COc1ccc(C)cc1-n1nnc2cc(F)c(-n3c(=O)cc(C(F)(F)F)n(C)c3=O)cc21", 6.5]
]}

Lab note: next molecule to report on.
Input: What value of Postemergence herbicidal rating GLXMAW has been recorded for this entry: Cc1ccccc1-n1nnc2cc(F)c(-n3c(=O)cc(C(F)(F)F)n(C)c3=O)cc21
Output: 5.5
